Target: UniProt:P05177
Sequence (P05177 2-516): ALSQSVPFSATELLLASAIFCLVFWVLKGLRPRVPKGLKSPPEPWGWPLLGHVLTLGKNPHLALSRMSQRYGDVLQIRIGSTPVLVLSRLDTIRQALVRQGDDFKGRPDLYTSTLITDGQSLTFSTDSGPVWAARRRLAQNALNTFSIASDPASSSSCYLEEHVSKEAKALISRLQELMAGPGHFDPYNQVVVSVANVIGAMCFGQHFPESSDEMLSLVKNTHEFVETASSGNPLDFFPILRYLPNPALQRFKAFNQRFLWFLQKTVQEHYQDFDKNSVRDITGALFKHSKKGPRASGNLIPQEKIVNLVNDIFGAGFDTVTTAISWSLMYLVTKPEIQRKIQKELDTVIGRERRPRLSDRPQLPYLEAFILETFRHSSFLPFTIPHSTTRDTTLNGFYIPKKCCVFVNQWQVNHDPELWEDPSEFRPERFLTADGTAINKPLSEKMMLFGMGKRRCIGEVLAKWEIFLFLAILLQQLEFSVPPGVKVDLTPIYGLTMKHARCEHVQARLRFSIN
ASSAY_ENDPOINT: pIC50
When answering, recall that pIC50 equals minus log10 of the concentration in mol/L, and write that number alone.

Input line: UniProt:P05177 / pIC50 / CC1=CC(=O)C(C(C)C)=CC1=O [thymoquinone] : value?
Output line: 4.58

----------
Target: CYP3A4 (Homo sapiens)
Sequence (P08684 2-503): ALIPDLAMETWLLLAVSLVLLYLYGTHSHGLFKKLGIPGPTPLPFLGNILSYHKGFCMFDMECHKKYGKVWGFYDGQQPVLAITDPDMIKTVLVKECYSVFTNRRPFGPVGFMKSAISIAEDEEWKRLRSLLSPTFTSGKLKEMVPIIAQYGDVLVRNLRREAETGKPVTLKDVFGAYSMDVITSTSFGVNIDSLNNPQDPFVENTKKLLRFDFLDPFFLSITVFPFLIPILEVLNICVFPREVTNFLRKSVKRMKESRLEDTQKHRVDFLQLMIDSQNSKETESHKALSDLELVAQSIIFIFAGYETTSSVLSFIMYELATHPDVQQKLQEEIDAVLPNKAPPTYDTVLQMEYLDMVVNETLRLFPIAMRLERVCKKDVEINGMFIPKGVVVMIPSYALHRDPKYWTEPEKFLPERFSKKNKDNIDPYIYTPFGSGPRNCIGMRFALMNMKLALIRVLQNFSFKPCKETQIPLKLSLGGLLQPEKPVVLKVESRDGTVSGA
ASSAY_ENDPOINT: IC50 (µM)
Your answer is read as µM, so omit the unit and give the number.

Input line: CYP3A4 (Homo sapiens) / IC50 / "CC1=CC(=O)C(C(C)C)=CC1=O" : value?
Output line: 25.2
